Attribution: patent US5605929A

Tgt: human 5α-reductase isozyme type 2 (Homo sapiens)
Construct: expressed in transfected cells; host or cells: Rat-1A cells infected with pMV7 retrovirus; microsomes of these cells
Sequence (P31213 whole entry): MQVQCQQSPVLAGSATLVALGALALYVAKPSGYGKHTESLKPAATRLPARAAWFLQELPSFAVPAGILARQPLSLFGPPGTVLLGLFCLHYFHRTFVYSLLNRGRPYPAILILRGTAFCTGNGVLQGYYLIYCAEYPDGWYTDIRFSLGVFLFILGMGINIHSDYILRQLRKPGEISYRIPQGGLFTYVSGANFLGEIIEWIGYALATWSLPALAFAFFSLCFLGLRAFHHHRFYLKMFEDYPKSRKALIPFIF
Assay method text: 4-[14C]testosterone reduction, human type 2 isozyme
Format: biochemical
Measurement conditions: enzymatic assay, concentrations below 30 μM for ECG/EGCG
Measured property: activity on type 2 isozyme

1) Oc1cc(O)c2c(c1)O[C@H](c1ccc(O)c(O)c1)[C@H](O)C2 [EC, (-)Epicatechin]
not active
2) Oc1cc(O)c2c(c1)O[C@H](c1cc(O)c(O)c(O)c1)[C@H](O)C2 [EGC, (-)Epigallocatechin]
not active

---

Tgt: human 5α-reductase isozyme type 1 (Homo sapiens)
Construct: expressed in transfected cells; host or cells: Rat-1A cells infected with pMV7 retrovirus; microsomes of these cells
Sequence (P18405 whole entry): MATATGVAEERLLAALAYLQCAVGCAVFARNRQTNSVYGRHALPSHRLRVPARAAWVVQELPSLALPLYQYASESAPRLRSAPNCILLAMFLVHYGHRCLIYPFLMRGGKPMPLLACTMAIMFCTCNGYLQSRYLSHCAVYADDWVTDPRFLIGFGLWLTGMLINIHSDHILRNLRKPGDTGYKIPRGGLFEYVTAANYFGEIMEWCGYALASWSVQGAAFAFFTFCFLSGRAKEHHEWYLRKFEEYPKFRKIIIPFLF
Assay method text: 4-[14C]testosterone reduction, human type 1 isozyme
Assay type: biochemical
Measurement conditions: read-out: % Inhibition of 5α-reduction
Measured property: inhibition at 3 µM (%)
Write the answer as a number in %, unit excluded.

1. O=C(O[C@@H]1Cc2c(O)cc(O)cc2O[C@@H]1c1cc(O)c(O)c(O)c1)c1cc(O)c(O)c(O)c1 [EGCG, (-)Epigallocatechin-3-gallate]
23
2. CCCCC/C=C\C/C=C\C/C=C\CCCCC(=O)O
52

Lookup: Consider the compound shown here: O=C(O[C@@H]1Cc2c(O)cc(O)cc2O[C@@H]1c1ccc(O)c(O)c1)c1cc(O)c(O)c(O)c1 [ECG, (-)Epicatechin-3-gallate] What is its recorded inhibition at 3 µM?
Found: 27

---

Listed here are compounds together with their documented pIC50.
Tgt: 5α-Reductase of Rat Liver Microsomes (Rattus norvegicus)
Assay method text: biochemical
Convention used: pIC50 is expressed as -log10 of the molar concentration.

Worked examples, 4 compounds total:
1) CCCCC/C=C\C/C=C\CCCCCCCCCC(=O)O [11,14-cis-Eicosadienoic Acid, 11,14 eicosadienoic acid]
3.88
2) CCCCCCCC/C=C\CCCCCCCCCC(=O)O [11-Eicosenoic Acid, 11 eicosenoic acid]
3.84
3) CCCC/C=C\CCCCCCCCCCCC(=O)O [13-Octadecenoic Acid, 13-octadecenoic acid]
4.03
4) CCCCC/C=C\C/C=C\CCCCCCCCC(=O)O [10,13-Nonadecadienoic Acid, 10,13-nonadecadienoic acid]
4.07

Lookup: Given the entry CCCCCCCCCCC/C=C\CCCCCCC(=O)O [8-Eicosenoic Acid, 8-eicosenoic acid] , what pIC50 was observed with 5α-Reductase of Rat Liver Microsomes (Rattus norvegicus)?
Found: 4.32

Lookup: Given the entry CCCC/C=C\CCCCCCCCC(=O)O [10-Pentadecenoic Acid, 10-pentadecenoic acid] , what pIC50 was observed with 5α-Reductase of Rat Liver Microsomes (Rattus norvegicus)?
Found: 4.00

---

Tgt: 5α-Reductase of Rat Liver Microsomes (Rattus norvegicus, UniProt P24008)
Sequence (P24008 whole entry): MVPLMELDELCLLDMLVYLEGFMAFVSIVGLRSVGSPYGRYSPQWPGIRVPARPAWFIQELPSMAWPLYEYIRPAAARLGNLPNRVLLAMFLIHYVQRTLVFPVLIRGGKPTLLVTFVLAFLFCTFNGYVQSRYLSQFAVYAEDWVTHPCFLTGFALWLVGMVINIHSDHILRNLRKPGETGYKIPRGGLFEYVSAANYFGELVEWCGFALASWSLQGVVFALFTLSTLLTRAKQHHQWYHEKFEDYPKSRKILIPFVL
Assay method text: biochemical
Measurement conditions: read-out: % Inhibition of [^3 H]4-MA binding, Table 2, 40 μM
Measured property: inhibition at 40 µM

1) CCCCCCCCCCCCCCCCCCCC(=O)Cl [Arachidoyl Chloride, archidoyl chloride]
< 10%

Lookup: Consider the compound shown here: "CCCC/C=C\CCCCCCCCCCCC(=O)O" What is its recorded inhibition at 40 µM?
Found: < 10%

Lookup: Consider the compound shown here: "CCCC/C=C\CCCCCCCCC(=O)O" What is its recorded inhibition at 40 µM?
Found: < 10%

Lookup: Consider the compound shown here: "CCCCCCCC/C=C/CCCCCCCC(=O)O" What is its recorded inhibition at 40 µM?
Found: < 10%
